Data provenance is PubChem BioAssay (NCI).

Test system: SW-620 colon
Assay: NCI-60 one-dose screen, 48 h (100 = growth as untreated, 0 = no growth, -100 = all killed)
Settings: 10 µM unless noted
Compounds without any hit were thinned out: in the full panel of roughly 83,000, 20% have a hit.
Parameter measured: growth (%)
Field format: number, assumed %, no unit text.

The following molecules have reported results that may help.
{"columns": ["Molecule", "Target of assay", "Recorded result"],
 "data": [
  ["Nc1c(C(=O)Nc2c(Cl)cccc2Cl)sc2nc3c(cc12)CCCC3", "SW-620 colon", 51],
  ["Cc1csc(-c2ccc3c(c2)COC3(CCCN(C)C)c2ccc(F)cc2)c1 (stereo not given)", "SW-620 colon", 22.7],
  ["COC(=O)CCCCCn1c2ccccc2c2c3c(c4c5ccccc5[nH]c4c21)C(=O)N(O)C3=O", "SW-620 colon", 48.7],
  ["COc1ccc2c(c1)C/C(=C\\c1cc(-c3ccc4c(c3)OCO4)n[nH]1)C2=O", "SW-620 colon", 96.6]
]}

Query :: Query: growth; subject: COc1cc2nc(Cl)nc(Nc3cccc(C(=O)/C=C/c4ccc(F)cc4)c3)c2cc1OC
Result :: 2.24

###

System: PC-3 prostate
Experiment: NCI-60 one-dose screen, 48 h
Conditions: 10 µM unless noted
About 83,000 compounds went through this panel and 20% of them were active in at least one assay; those are over-represented in the sample as a whole. The source made the active and inactive calls. Rule for the calls: active = growth percent below 10; inactive = the rest.
# output must be one of True = active, False = inactive

{"columns": ["Compound", "Label class"],
 "data": [
  ["O=C1c2cccc3cccc(c23)C(=O)N1CC#Cc1ccc2c3c(cccc13)C(=O)N(CCO)C2=O", "False"],
  ["CC(=O)Nc1cc(F)cc(C(F)(F)F)c1Cl", "False"],
  ["S=c1[nH]nc2ccccn12", "False"],
  ["CCC1C(=O)COC1=O (stereo not given)", "False"],
  ["CC(C)=CCC[C@](C)(O)[C@H]1CC[C@]2(C)[C@@H]1CC[C@@H]1[C@@]3(C)C/C(=C/c4cccc([N+](=O)[O-])c4)C(=O)C(C)(C)[C@@H]3CC[C@]12C", "False"],
  ["COc1ccc2c(c1)c(-c1nc(-c3c[nH]c4ncccc34)cs1)cn2CCCN1CCCCC1", "False"],
  ["Cc1ccc2c(c1)c1nc3cc(C)c(C)cc3nc1n2CCN(C)C", "False"],
  ["Nc1nc2c3ccncc3cc(-c3cccc(Cl)c3)c2c2cnccc12", "False"]
]}

Query :: Record request — test call for COc1cc2c(cc1OC)C(=O)/C(=C/c1cc(-c3ccc4c(c3)OCO4)n[nH]1)C2
Result :: True

###

Tested on: NCI-H522 lung
Experiment: NCI-60 one-dose screen, 48 h
Conditions: 10 µM unless noted
The panel holds about 83,000 compounds, 20% with a hit somewhere; the sample as a whole holds those more often. Calls of active or inactive are those of the source. Rule for the calls: active = growth percent below 10; inactive = the rest.
Output constraint: value belongs to active, inactive

Take a look at these entries with their results.
{"columns": ["Smiles notation", "Label class"],
 "data": [
  ["CCN1CCN(C(=O)[C@]23CCC(C)(C)C[C@@H]2C2=CC[C@@H]4[C@@]5(C)C/C(=C/c6ccncc6)C(=O)C(C)(C)[C@@H]5CC[C@@]4(C)[C@]2(C)CC3)CC1", "active"],
  ["Cn1c(/C(C#N)=C/c2ccc3ccccc3c2)cc2ccccc21", "inactive"],
  ["Cc1cc(N2CCCCC2)nc(N(CCCNc2ccnc3cc(Cl)ccc23)Cc2ccco2)n1", "inactive"]
]}

Okay, now this compound:
Query :: What classification did Cc1cc2nc3c4cc([N+](=O)[O-])cc([N+](=O)[O-])c4n(CCN(C)C)c3nc2cc1C end up with in this test?
Result :: inactive

###

Tested on: IGROV1 ovarian
Assay: NCI-60 one-dose screen, 48 h
Conditions: 10 µM unless noted
About 83,000 compounds went through this panel and 20% of them were active in at least one assay; those are over-represented in the sample as a whole. Calls of active or inactive are those of the source. How the source made its calls: active means growth percent below 10; inactive means the rest.
Classes to choose from: True (active), False (inactive)

{"columns": ["Compound", "Label class"],
 "data": [
  ["CC[C@]12C=CCN3CC[C@@]4(c5cc([C@H]6CCC(=O)N6)c(OC)cc5N(C)[C@H]4[C@@](O)(C(=O)OC)[C@@H]1OC(C)=O)[C@@H]32", "False"]
]}

Query :: Could you check what this test reported for Cc1cc(Cl)nc(N(CCNc2ccnc3cc(Cl)ccc23)Cc2ccco2)n1 ?
Result :: False

Query :: Query: recorded result category for COc1ccc(-c2cc(/C=C/C(=O)c3ccc(N)cc3)[nH]n2)cc1 in this test
Result :: False

Query :: Given O=C(NC(Cc1cn(Cc2ccccc2)cn1)C(=O)O)OCC1c2ccccc2-c2ccccc21 (stereo not given) , state the outcome it received in this test.
Result :: False

Query :: Write down the call the test reported for this compound. Item: CC1(C)CC[C@]2(CO)CC[C@]3(C)C(=CC[C@@H]4[C@@]5(C)CC[C@H](NCO)C(C)(C)[C@@H]5CC[C@]43C)[C@@H]2C1
Result :: True

Query :: # outcome recorded in this test, key = Cc1cc2nc3c4cc(O)ccc4n(CCN(C)C)c3nc2cc1C
Result :: True

###

This listing pairs compounds with measured growth.
System: NCI-H23 lung
Experiment: NCI-60 one-dose screen, 48 h (100 = growth as untreated, 0 = no growth, -100 = all killed)
Settings: 10 µM unless noted
The panel holds about 83,000 compounds, 20% with a hit somewhere; the sample as a whole holds those more often. The source made the active and inactive calls. How the source made its calls: active means growth percent below 10; inactive means the rest.

{"columns": ["Compound", "Target of assay", "growth"],
 "data": [
  ["CC(c1ccccc1)N1C(=O)C(C2SC(=S)N(C(C)c3ccccc3)C2=O)SC1=S (stereo unspecified)", "NCI-H23 lung", "96.1% (inactive)"],
  ["Cc1ccsc1-c1ccc2c(c1)COC2(CCCN(C)C)c1ccc(F)cc1 (stereo unspecified)", "NCI-H23 lung", "70.6% (inactive)"],
  ["CCN1CCN(C(=O)[C@@]2(C)CC[C@]3(C)CC[C@]4(C)C(=CC(=O)[C@@H]5[C@@]6(C)CC[C@H](OCCC#N)C(C)(C)[C@@H]6CC[C@]54C)[C@@H]3C2)CC1", "NCI-H23 lung", "87.9% (inactive)"],
  ["COc1cccc(-c2nn(-c3ccccc3)cc2-c2ccnc(NCCNS(=O)(=O)c3ccc(C(F)(F)F)cc3)c2)c1", "NCI-H23 lung", "17.1% (inactive)"],
  ["COC(=O)[C@]12CC[C@@H](C)[C@H](C)[C@@H]1C1=CC[C@@H]3[C@@](C)(CC#N)C4=C(C[C@@]3(C)[C@]1(C)CC2)OC[C@]4(C)C=O", "NCI-H23 lung", "-10.1% (active)"]
]}

Query :: Record request: growth value, item Nc1c(C(=O)Nc2cccc(Br)c2)sc2nc3c(cc12)C(=O)CCC3
Result :: 34% (inactive)

Query :: Given CCN1CCN(C(=O)[C@]23CCC(C)(C)C[C@@H]2C2=CC[C@@H]4[C@@]5(C)C/C(=C/c6cccnc6)C(=O)C(C)(C)[C@@H]5CC[C@@]4(C)[C@]2(C)CC3)CC1 , state its recorded growth.
Result :: 27.1% (inactive)

Query :: Please look up its growth: COC(=O)[C@]12CC[C@@H](C)[C@H](C)[C@@H]1C1=CC[C@@H]3[C@@]4(C)C[C@@H](O)[C@H](O)[C@@](C)(CO)C4=CC[C@@]3(C)[C@]1(C)CC2
Result :: -57.8% (active)

Query :: // growth lookup, key: NCCNc1nc(-c2ccccc2)nc2nc(-c3ccccc3)oc12
Result :: 90.6% (inactive)

Query :: Which growth is reported for this compound? NCCn1cc(-c2nc(-c3c[nH]c4ncccc34)cs2)c2cc(F)ccc21
Result :: 76.7% (inactive)

Query :: Sample C=CC(=O)N[C@H](Cc1ccc(-c2cc(Cl)cc(Cl)c2)cc1)[C@H](O)[C@@H](O)C(=O)O — what was its growth?
Result :: 93.6% (inactive)

Query :: Query: growth; subject: CC(=O)Cc1nsc(NC(=O)c2ccoc2COc2ccccc2)n1
Result :: 95.2% (inactive)

Query :: Which growth reading was recorded for the compound CC(=O)n1c(/C(C#N)=C/c2ccc(N(C)C)cc2)cc2ccccc21 ?
Result :: 40.5% (inactive)

Query :: What does the data say about its growth? Entry: O=c1[nH]c(=S)[nH]c2nc[nH]c12
Result :: 88.6% (inactive)

Query :: Fill blank: measured growth of the compound Cc1cc(N(CCCNc2ccnc3cc(Cl)ccc23)Cc2ccco2)nc(N2CCN(C)CC2)n1 is ____.
Result :: 66% (inactive)

Query :: # input compound: c1ccc2[nH]c(-c3cc(-c4ccc5c(c4)OCO5)n[nH]3)nc2c1 ; wanted: its growth
Result :: 68.8% (inactive)
